Where do the numbers come from? From the supplement of paper PMC10567573.

B1: PBXIP1 (parent)
chain: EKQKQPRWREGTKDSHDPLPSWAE

# Variants of: B1
# MEASUREMENT PROTOCOL: protein stability index of a GFP-peptide fusion (GPS, HEK-293T) (PSI 1-6); higher = more stable;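 note: lentivirally expressed fusions sorted by FACS into six bins by GFP to DsRed ratio, PSI derived from sequencing read proportions per bin multiplied by bin number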
# SETTINGS: c terminus: a fixed tail appended
ASSAY READOUT: protein stability index

> print(dat)
     var  experimental.value
 1  S15A                2.65
 2   K2Q                2.69
 3   K2N                1.46
 4   E1P                1.22
 5   K4Y                   3
 6  L19H                2.63
 7  P18H                1.75
 8  P18D                1.75
 9   E1H                2.64
10   P6E                1.89
11  S15E                1.37
12  S21E                3.19
13  L19P                1.73
14  P18T                1.87
15  P20F                1.52
16   E1Q                   2
